target: HIV integrase (Human immunodeficiency virus type 1 group M subtype B); test: integrase strand transfer assay (STA); assay type: biochemical; settings: integrase strand transfer; read-out: IC50 in the STA assay
# IC50 listing for each entry below

Example cases with answers are listed next.
O=C(c1cc(=O)n(O)c2ncccc12)N1CCc2ccccc2C1	< 50 µM
CS(=O)(=O)Nc1ccccc1-c1cc(=O)n(O)c2ncccc12	< 50 µM
O=c1cc(NCCN2CCOCC2)c2cccnc2n1O	< 50 µM
O=c1c(-c2ccccc2F)c(O)c2cccnc2n1O	< 50 µM
CN(Cc1ccccc1)C(=O)c1c(O)c2cccnc2n(O)c1=O	< 50 µM
O=c1c(-c2ccc(Br)cc2)c(O)c2cccnc2n1O	< 50 µM
CCOC(=O)c1c(O)c2cc(C(C)=O)cnc2n(O)c1=O	< 50 µM
O=c1cc(O)c2c(-c3cccc(O)c3)ccnc2n1O	< 50 µM

State measured IC50 of the molecule `COC(=O)c1cnc2c(c1)c(O)c(C(=O)NCc1ccccc1)c(=O)n2O` with HIV integrase (Human immunodeficiency virus type 1 group M subtype B).
< 50 µM

State measured IC50 of the molecule `O=c1cc(N2CCC[C@@H]2CF)c2cccnc2n1O` with HIV integrase (Human immunodeficiency virus type 1 group M subtype B).
< 50 µM

State measured IC50 of the molecule `COC(=O)CCc1cccc(-c2cccc(-c3cc(=O)n(O)c4ncccc34)c2)c1` with HIV integrase (Human immunodeficiency virus type 1 group M subtype B).
< 50 µM

State measured IC50 of the molecule `Nc1ccc(-c2ccc3c(c2)CN(c2cc(=O)n(O)c4ncccc24)CC3)cc1` with HIV integrase (Human immunodeficiency virus type 1 group M subtype B).
< 50 µM

State measured IC50 of the molecule `NCc1cccc(CNC(=O)Cc2c(O)c3cccnc3n(O)c2=O)c1` with HIV integrase (Human immunodeficiency virus type 1 group M subtype B).
< 50 µM

State measured IC50 of the molecule `O=c1cc(Nc2ccccc2-c2ccccc2)c2cccnc2n1O` with HIV integrase (Human immunodeficiency virus type 1 group M subtype B).
< 50 µM

State measured IC50 of the molecule `CCOC(=O)c1c(O)c2c(Cc3cccc(-c4cccc(CN)c4)c3)ccnc2n(O)c1=O` with HIV integrase (Human immunodeficiency virus type 1 group M subtype B).
< 50 µM

State measured IC50 of the molecule `CCOC(=O)c1c(-c2ccc(-c3ccc(CN)cc3)cc2)c2cccnc2n(O)c1=O` with HIV integrase (Human immunodeficiency virus type 1 group M subtype B).
< 50 µM

State measured IC50 of the molecule `NCc1cccc(-c2ccc3c(c2)CN(c2cc(=O)n(O)c4ncccc24)CC3)c1` with HIV integrase (Human immunodeficiency virus type 1 group M subtype B).
< 50 µM

State measured IC50 of the molecule `CCOC(=O)c1c(O)c2cc(-c3cccc(C#N)c3)cnc2n(O)c1=O` with HIV integrase (Human immunodeficiency virus type 1 group M subtype B).
< 50 µM

State measured IC50 of the molecule `O=c1c(-c2ccccc2)c(O)c2cc(Cc3ccccc3)cnc2n1O` with HIV integrase (Human immunodeficiency virus type 1 group M subtype B).
< 50 µM

State measured IC50 of the molecule `CC(=O)Nc1cccc(-c2cc(=O)n(O)c3ncccc23)c1` with HIV integrase (Human immunodeficiency virus type 1 group M subtype B).
< 50 µM

State measured IC50 of the molecule `CCOC(=O)Cc1c(O)c2cccnc2n(O)c1=O` with HIV integrase (Human immunodeficiency virus type 1 group M subtype B).
< 50 µM

State measured IC50 of the molecule `Cc1cc(C)n(-c2cccc(-c3ccnc4c3c(O)cc(=O)n4O)c2)n1` with HIV integrase (Human immunodeficiency virus type 1 group M subtype B).
< 50 µM

State measured IC50 of the molecule `CN(C)C(=O)CNCc1cccc(-c2cc(=O)n(O)c3ncccc23)c1` with HIV integrase (Human immunodeficiency virus type 1 group M subtype B).
< 50 µM
